Exercise: for every item that follows, state its recorded pIC50.
tgt: LCK (Homo sapiens, UniProt P06239)
Sequence (P06239 whole entry): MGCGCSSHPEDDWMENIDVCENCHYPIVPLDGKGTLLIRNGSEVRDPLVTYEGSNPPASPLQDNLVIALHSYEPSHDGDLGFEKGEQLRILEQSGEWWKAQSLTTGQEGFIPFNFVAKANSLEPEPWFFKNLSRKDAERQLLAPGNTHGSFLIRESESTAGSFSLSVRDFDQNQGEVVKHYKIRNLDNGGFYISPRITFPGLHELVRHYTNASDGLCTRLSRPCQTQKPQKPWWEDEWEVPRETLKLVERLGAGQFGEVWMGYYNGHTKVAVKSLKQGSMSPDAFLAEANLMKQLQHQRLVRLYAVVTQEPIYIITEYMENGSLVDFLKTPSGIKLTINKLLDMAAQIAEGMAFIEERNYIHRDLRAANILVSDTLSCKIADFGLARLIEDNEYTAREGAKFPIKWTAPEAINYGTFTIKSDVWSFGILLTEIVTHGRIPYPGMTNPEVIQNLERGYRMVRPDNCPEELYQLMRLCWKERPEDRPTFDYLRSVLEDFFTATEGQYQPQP
protocolDescription: Inhibition of a panel of kinases, in vitro HotSpot kinase assay: LCK
Type: biochemical
assaySetup: D-compounds panel data; 1 μM ATP; read-out: IC50 LCK
pIC50: −log10 of the molar value.

Identify the measured pIC50 of C[C@@H]1[C@H](NC(=O)c2ccc(C3CC3)cc2F)CCCN1c1cnc(C(N)=O)c(Nc2ccc(S(=O)(=O)N3CCCC3)cc2)n1 for LCK (Homo sapiens, UniProt P06239). < 5.00

Similarly, C[C@@H]1[C@H](NC(=O)c2ccc(C3CC3)cc2)CCCN1c1cnc(C(N)=O)c(Nc2cnn(C3CC3)c2)n1 ? 6.00 to 7.00

And what about the compound C[C@@H]1[C@H](NC(=O)c2ccc(C3CC3)cc2F)CCCN1c1cnc(C(N)=O)c(Nc2ccc3cccnc3c2)n1 ? < 5.00

Also need Cc1cc(Nc2nc(N3C[C@H](NC(=O)N(C)C)CC[C@@H]3C)cnc2C(N)=O)sn1 , thanks. 6.00 to 7.00

Try C[C@@H]1[C@H](NC(=O)c2cc3c(n2C)CC(C)(C)C3)CCCN1c1cnc(C(N)=O)c(Nc2cnn(C)c2)n1 next. 6.00 to 7.00

How about this compound: Cc1cc(Nc2cc(N3CCC[C@@H](NC(=O)N(C)C)[C@H]3C)cnc2C(N)=O)sn1 5.00 to 6.00

Entry to check: C[C@H]1CC[C@@H](NC(=O)c2ccc(C(C)(C)O)cc2)CN1c1cnc(C(N)=O)c(Nc2cnn(C)c2)n1 7.00 to 8.00

###

Answer each item with its documented IC50.
tgt: EGFR (Homo sapiens)
Sequence (P00533 25-1210): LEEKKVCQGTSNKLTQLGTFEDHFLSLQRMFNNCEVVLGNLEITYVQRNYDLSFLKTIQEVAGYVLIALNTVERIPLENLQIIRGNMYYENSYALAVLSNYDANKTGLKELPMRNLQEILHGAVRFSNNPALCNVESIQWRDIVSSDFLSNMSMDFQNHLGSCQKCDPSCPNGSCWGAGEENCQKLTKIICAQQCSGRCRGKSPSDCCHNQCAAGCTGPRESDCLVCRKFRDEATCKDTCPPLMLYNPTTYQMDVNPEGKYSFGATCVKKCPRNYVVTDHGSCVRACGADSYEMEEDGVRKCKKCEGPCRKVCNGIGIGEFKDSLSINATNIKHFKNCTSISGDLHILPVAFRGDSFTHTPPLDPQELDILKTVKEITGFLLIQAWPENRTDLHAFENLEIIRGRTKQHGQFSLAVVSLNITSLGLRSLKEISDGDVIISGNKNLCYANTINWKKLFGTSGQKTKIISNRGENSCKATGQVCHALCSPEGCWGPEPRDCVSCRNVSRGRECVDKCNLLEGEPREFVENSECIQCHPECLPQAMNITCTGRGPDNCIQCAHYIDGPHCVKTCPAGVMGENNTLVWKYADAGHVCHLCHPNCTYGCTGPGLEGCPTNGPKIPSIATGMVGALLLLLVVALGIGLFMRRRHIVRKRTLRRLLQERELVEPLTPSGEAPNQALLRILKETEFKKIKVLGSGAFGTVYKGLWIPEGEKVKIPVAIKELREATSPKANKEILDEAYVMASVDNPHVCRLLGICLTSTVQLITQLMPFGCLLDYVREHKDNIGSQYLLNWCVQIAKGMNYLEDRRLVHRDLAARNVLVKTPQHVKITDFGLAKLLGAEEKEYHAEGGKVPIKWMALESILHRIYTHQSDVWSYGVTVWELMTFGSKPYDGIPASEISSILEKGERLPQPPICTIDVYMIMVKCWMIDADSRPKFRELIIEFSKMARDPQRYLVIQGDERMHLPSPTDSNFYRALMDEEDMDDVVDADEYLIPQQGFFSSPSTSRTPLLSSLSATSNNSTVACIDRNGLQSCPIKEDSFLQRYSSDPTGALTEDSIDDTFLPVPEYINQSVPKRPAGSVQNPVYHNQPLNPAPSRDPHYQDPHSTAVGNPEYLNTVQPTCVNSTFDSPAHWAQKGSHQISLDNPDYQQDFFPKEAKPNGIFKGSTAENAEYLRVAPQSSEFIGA
protocolDescription: Inhibition of a panel of kinases, in vitro HotSpot kinase assay: EGFR
Format: biochemical
assaySetup: Table 13, A compounds; 1 μM ATP

IC50 lookup needed for C[C@@H]1[C@H](NC(=O)c2ccc(C3CC3)cc2Cl)CCCN1c1cnc(C(N)=O)c(Nc2ccc(N3CCN(C)CC3)cc2)n1 [Example A-180] , thanks. 100 to 1000 nM

Record: C[C@@H]1[C@H](NC(=O)c2ccc(C3CC3)cc2F)CCCN1c1cnc(C(N)=O)c(Nc2ccc(N3CCN(C)CC3)c(F)c2)n1 [Example A-171] 100 to 1000 nM

Repeat with Cc1cc(Nc2nc(N3CCC[C@@H](NC(=O)N4Cc5ccccc5C4=O)C3)cnc2C(N)=O)sn1 [Example A-183] 100 to 1000 nM

Now the molecule Cn1cc(Nc2nc(N3C[C@@H](NC(=O)c4ccc(C5CC5)cc4)CC(F)(F)C3)cnc2C(N)=O)cn1 [Example A-187] 1000 to 10000 nM

One more molecule: Cc1c(Nc2nc(N3CCC[C@@H](NC(=O)c4ccc(C5CC5)cc4)[C@H]3C)cnc2C(N)=O)cnn1C [Example A-191] 1000 to 10000 nM

Record: C[C@@H]1[C@H](NC(=O)c2cc3c(n2C)CC(C)(C)C3)CCCN1c1cnc(C(N)=O)c(Nc2cnn(C)c2)n1 [Example A-193] 100 to 1000 nM

What do you have for C[C@@H]1[C@H](NC(=O)N(C)C)CCCN1c1cnc(C(N)=O)c(Nc2ccc(C(=O)N3CCN(C)CC3)cc2)n1 [Example A-98] ? 1000 to 10000 nM

Now the molecule COCCN(C)Cc1cc(Nc2nc(N3CCC[C@@H](NC(=O)c4ccc(C5CC5)cc4)[C@H]3C)cnc2C(N)=O)sn1 [Example A-185] > 10000 nM

Check C[C@@H]1[C@H](NC(=O)c2ccc(C(C)(C)C)cc2)CCCN1c1cnc(C(N)=O)c(Nc2ccc(N3CCN(C)CC3)cc2)n1 [Example A-184] too. 1000 to 10000 nM

Next record, please: Cc1cc(Nc2nc(N3CCC[C@@H](n4ccc5cc(C6CC6)ccc5c4=O)C3)cnc2C(N)=O)sn1 [Example A-107] > 10000 nM

Thanks! And C[C@@H]1[C@H](NC(=O)c2ccc(C3CC3)cc2F)CCCN1c1cnc(C(N)=O)c(Nc2cnn(C)c2)c1 [Example A-127] ? 1000 to 10000 nM

Now consider C[C@@H]1[C@H](NC(=O)c2ccc(C3CC3)cc2)CCCN1c1cnc(C(N)=O)c(Nc2cnn(C3CCN(C)CC3)c2)n1 [Example A-173] . 100 to 1000 nM

Moving on to CC1(c2ccc(Nc3nc(N4CCC[C@@H](n5ccc6cc(C7CC7)ccc6c5=O)C4)cnc3C(N)=O)cc2)CCN(C2CCCC2)CC1 [Example A-141] 100 to 1000 nM

Would you kindly repeat that for C[C@@H]1[C@H](NC(=O)c2ccc(C3CC3)cc2F)CCCN1c1cnc(C(N)=O)c(Nc2ccc(C3(C)CCN(C4CCCC4)CC3)cc2)n1 [Example A-121] ? 10 to 100 nM

And for C[C@@H]1[C@H](NC(=O)c2ccc(C3CC3)cc2F)CCCN1c1cnc(C(N)=O)c(Nc2cnn(C)c2)n1 [Example A-110] ? 1000 to 10000 nM

Moving on to the next molecule: C[C@@H]1[C@H](NC(=O)c2ccc(C3CC3)cc2)CCCN1c1cnc(C(N)=O)c(Nc2cnn(CCN(C)C)c2)n1 [Example A-182] 1000 to 10000 nM

What about COCCn1cc(Nc2nc(N3CCC[C@@H](NC(=O)c4ccc(C5CC5)cc4)[C@H]3C)cnc2C(N)=O)cn1 [Example A-186] ? 1000 to 10000 nM

Thanks! And C[C@@H]1[C@H](NC(=O)c2ccc(C3CC3)cc2F)CCCN1c1cnc(C(N)=O)c(Nc2cc(CN3CCOCC3)ns2)n1 [Example A-128] ? 100 to 1000 nM

Try this molecule next: CN1CCN(C(=O)c2ccc(Nc3nc(N4CCC[C@@H](n5ccc6cc(C7CC7)ccc6c5=O)C4)cnc3C(N)=O)cc2)CC1 [Example A-115] 100 to 1000 nM

Now consider Cn1cc(Nc2nc(N3CCC[C@@H](n4ccc5cc(C6CC6)ccc5c4=O)C3)cnc2C(N)=O)cn1 [Example A-167] and answer again. > 10000 nM

###

Task for the reader: assign each of the following compounds its reported IC50.
tgt: LCK (Homo sapiens)
protocolDescription: Inhibition of a panel of kinases, in vitro HotSpot kinase assay: LCK
Format: biochemical
assaySetup: D-compounds panel data; 1 μM ATP; read-out: IC50 LCK

Notebook entry, LCK (Homo sapiens) assay: IC50 of C[C@@H]1[C@H](NC(=O)c2ccc(C3CC3)cc2F)CCCN1c1cnc(C(N)=O)c(Nc2ccc(N3CCN(C4CCCC4)CC3)cc2)n1 = ? 100 to 1000 nM

How about this compound: NC(=O)c1ncc(N2CCC[C@@H](n3ccc4cc(C5CC5)ccc4c3=O)C2)nc1Nc1ccc2ncccc2c1 > 10000 nM

Also need Cc1cc(Nc2nc(N3C[C@@H](NC(=O)N(C)C)CC[C@H]3C)cnc2C(N)=O)sn1 , thanks. 100 to 1000 nM

And what about the compound CNC(=O)N[C@@H]1CCCN(c2cnc(C(N)=O)c(Nc3cnn(C)c3)n2)[C@@H]1C ? 100 to 1000 nM

Now consider CCN(C)C(=O)N[C@@H]1CCCN(c2cnc(C(N)=O)c(Nc3cnn(C)c3)n2)[C@@H]1C . 100 to 1000 nM

Proceed to Cn1cc(Nc2nc(N3CCC[C@@H](NC(=O)c4ccc(C5CC5)cc4)C3)cnc2C(N)=O)cn1 100 to 1000 nM

Also, C[C@@H]1[C@H](NC(=O)c2ccc(C3CC3)cc2F)CCCN1c1cnc(C(N)=O)c(Nc2ccc(N3CCN(C)CC3)cn2)n1 please. > 10000 nM

// next record C[C@@H]1[C@H](NC(=O)c2ccc(SC(F)(F)F)cc2)CCCN1c1cnc(C(N)=O)c(Nc2cnn(C)c2)n1 100 to 1000 nM

Entry to check: C[C@@H]1[C@H](NC(=O)c2cc(C3CC3)n(C)n2)CCCN1c1cnc(C(N)=O)c(Nc2cnn(C)c2)n1 100 to 1000 nM

One more compound: C[C@@H]1[C@H](NC(=O)c2ccc(C3CC3)cc2)CCCN1c1cnc(C(N)=O)c(Nc2cnn(CC#N)c2)n1 100 to 1000 nM

Next entry: C[C@@H]1[C@H](NC(=O)c2ccc(C3CC3)cc2F)CCCN1c1cnc(C(N)=O)c(Nc2ccc(N3CCNCC3)c(F)c2)n1 10 to 100 nM

Cc1ncc(Nc2nc(N3CCC[C@@H](NC(=O)c4ccc(C5CC5)cc4)[C@H]3C)cnc2C(N)=O)s1 ? 100 to 1000 nM

Same question, C[C@@H]1[C@H](NC(=O)c2ccc(C3CC3)cc2)CCCN1c1cnc(C(N)=O)c(Nc2cnn(-c3ccncc3)c2)n1 this time 10 to 100 nM
